// data source = ChEMBL document CHEMBL1201862

tested on: DU-145; test: NCI tumour cell line growth inhibition, 48 h
Active and inactive are the calls of the source. No stated cut-off is given here; in the data, active = GI50 up to about 1.1 µM and inactive = higher.
Entry note: the call must match one of active, inactive

# outcome recorded in this test, key = COC1=CC(=O)c2c(c(COP(=O)(N(C)CCBr)N(C)CCBr)cn2C)C1=O
active

# outcome recorded in this test, key = O=S1(=O)c2ccccc2N2CCCc3cc(Cl)cc1c32
inactive

# outcome recorded in this test, key = CCOC(=O)/C(=C\c1c[nH]c2ccccc12)P(=O)(OCC)OCC
inactive

# outcome recorded in this test, key = Cc1cc(-c2c(Br)cc(C(=O)O)n2C)on1
inactive

# outcome recorded in this test, key = Fc1cccc(F)c1C1SCC2=Nc3ccccc3CN21 (stereo unspecified)
inactive

# outcome recorded in this test, key = Nc1ncnc2c1ncn2CCCNO
inactive

# outcome recorded in this test, key = OC1(c2ccccc2)CC2CCC(C1)N2CCCC1(c2ccc(F)cc2)OCCO1 (stereo unspecified)
inactive

# outcome recorded in this test, key = Oc1ccc(Cl)cc1/C=N/c1cnc2ccccc2c1
inactive

# outcome recorded in this test, key = O=C(Nc1ccccc1)c1cc(S(=O)(=O)n2ccnc2O)c(S)cc1Cl
inactive

# outcome recorded in this test, key = O=C(O)Cc1ccc(Oc2nc3ccccc3nc2-c2cccs2)cc1
inactive

# outcome recorded in this test, key = COc1ccccc1C1ON=C(c2ccc([N+](=O)[O-])cc2)N1C12CC3CC(CC(C3)C1)C2 (stereo unspecified)
inactive
